Entries and their log(activity)
# Test system: Respiratory syncytial virus
# MEASUREMENT NOTES: Antiviral activity against RSV infected in human A549 cells assessed as reduction in viral titer at 10 uM incubated for 15 hrs by immunostaining analysis
# Type: functional
The response must contain the number and no unit.

{"COMPOUND": "CCCNc1ccc(NC(=O)c2cc(Cl)ccc2O)c(Cl)c1", "QUANTITY MEASURED": "log(activity)", "VALUE": 1.82}

Lookup: Entry CCCCCCC(C)Nc1ccc(NC(=O)c2cc(Cl)ccc2O)c(Cl)c1 (configuration not stated) has what log(activity)?
Found: 1.16

Lookup: Okay, and "CC(=O)Nc1ccc(NC(=O)c2cc(Cl)ccc2O)c(Cl)c1" ?
Found: 0.09

Lookup: Okay, and "O=C(Nc1ccc(NCc2cc(C(F)(F)F)cc(C(F)(F)F)c2)cc1Cl)c1cc(Cl)ccc1O" ?
Found: 2.59
